measurement target: T1, Human Activin A Fc (human, UniProt P03970 309-424 (pig entry))
T1 construct: also called human Activin A-Fc fusion; human Activin A-Fc antigen; not shown: Fc part
T1 sequence: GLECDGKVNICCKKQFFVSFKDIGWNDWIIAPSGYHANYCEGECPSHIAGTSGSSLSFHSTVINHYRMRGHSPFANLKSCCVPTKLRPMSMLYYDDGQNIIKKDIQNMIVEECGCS
assay explanation: Octet BLI, Fab, monovalent
pKd: −log10 of the molar value.
Recorded pKd by entry
readout name: pKd

INSERT INTO assay_data (binder, readout_name, measured) VALUES
  ('Fab of anti-Activin A antibody Clone K (Fab, V domains shown, Fab format; only VH and VL are tied to the clone; also called Clone K Fab) VH: QVQLVQSGAEVKKPGSSVKVSCKASGGTSSSYAISWVRQAPGQGLEWMGYIIPAFGTANYAQKFQGRVTITADESTSTAYMELSSLRSEDTAVYYCARPVRTYPLGKYFYHWGQGTLVTVSS VL: EIVLTQSPATLSLSPGERATLSCRASQSVSSYLAWYQQKPGQAPRLLIYDASNRATGIPARFSGSGSGTDFTLTISSLEPEDFAVYYCQQDSIFPPYTFGGGTKVEIK', 'pKd', 9.03),
  ('Fab of anti-Activin A antibody Clone L (Fab, V domains shown, Fab format; only VH and VL are tied to the clone; also called Clone L Fab) VH: QVQLQESGPGLVKPSETLSLTCAVSGYSISSGYYWGWIRQPPGKGLEWIGSIYHSGSTYYNPSLKSRVTISVDTSKNQFSLKLSSVTAADTAVYYCAREAGSGYWYLSVYGMDVWGQGTTVTVSS VL: EIVLTQSPATLSVSPGERATLSCRASQSVSSNLAWYQQKPGQAPRLLIYGASTRATGIPARFSGSGSGTEFTLTISSLQSEDFAVYYCQQSDDWPWTFGGGTKVEIK', 'pKd', 8.38);
